system: HeLa human cervix carcinoma cells; experiment: Antiproliferative MTT assay, HeLa; type: cell-based; conditions: selectivity index: IC50 in non-tumour cells / IC50 in cancer cells
# SI MRC-5/HeLa listing for each entry below

So what does the record say about SI MRC-5/HeLa for `C=Cc1c(C)cc(O)c2c1CCc1c-2cc(-c2c(C)c(C=C)c3c(c2O)-c2ccc(O)c(C)c2CC3)c(O)c1C` ?
1.67

Next entry: `CC(=O)c1c(C)cc(O)c2c1CCc1c-2ccc(O)c1C`
>1.32

Next entry: `C=Cc1c(C)cc(O)c2c1CCc1c-2cc(-c2cc3c(c(C)c2O)CCc2c(C=C)c(C)cc(O)c2-3)c(O)c1C`
1.72

The origin of these recorded values is paper PMC8949129.
